# Tested on: Caco-2
# experimental-details: cell viability relative to DMSO; higher = less toxic
# assay-context: 72 h; 10000 nM
metric: cell viability
Answer with the figure and its unit, nothing else.

1. O=C(O)CCNc1cc(N2CCc3ccccc3CC2)nc(-c2ccccn2)n1 [GSK-J1] : 104%
2. CC1(C)S[C@@H]2[C@H](NC(=O)[C@H](N)c3ccc(O)cc3)C(=O)N2[C@H]1C(=O)O [amoxicillin] : 97.7%
3. CNC(=O)[C@H](Cc1ccccc1)NC(=O)[C@H](CC(C)C)[C@H](CSc1cccs1)C(=O)NO [batimastat] : 85%
4. O=C(NCCNCC(O)COc1ccc(O)cc1)N1CCOCC1 (centres undefined) [xamoterol] : 99.5%
5. Cc1cn2nc([C@@H]3CCCCN3C(=O)c3cc(Cl)ccc3NS(C)(=O)=O)cc2nc1N1CC[C@H](N)C1 [presatovir] : 53.9%
6. CC(=O)c1cc([N+](=O)[O-])c(Sc2ccc(F)cc2F)s1 : 31.8%
7. CCCc1c(OCCCOc2ccc(OCC(=O)O)cc2)ccc(C(C)=O)c1O : 103%
8. CC(=O)N1N=C(c2ccc(N)cc2)c2cc3c(cc2C[C@H]1C)OCO3 [talampanel] : 98.6%

// switching to the query compound
IN: What value of cell viability has been recorded for this entry: COc1cc(C(=S)N2CCOCC2)ccc1O [vanitiolide]
OUT: 97.6%
